- Test system: ZF4 (fibroblasts) cell line
- Method: ATP assay (ATP/LDH multiplex), ATP metabolism
- Format: cell-based, zebrafish (Danio rerio)
- Experimental Setup: Danio rerio, Fibroblast; ATP - ZF4; log10 of IC50; read-out: LogIC50 (converted)
Label 1 when IC50 < 40 µM; otherwise 0.

These recorded examples may help you get a feel for the data.
Q: Is IC50 strictly under 40 µM for the entry COC(=O)Nc1nc2ccc([S+]([O-])c3ccccc3)cc2[nH]1 (stereo not shown) ?
Result: 0

Q: Is IC50 strictly under 40 µM for the entry `CO[C@H]1C[C@H](O[C@H]2[C@H](C)O[C@@H](O[C@@H]3/C(C)=C/C[C@@H]4C[C@@H](C[C@]5(C=C[C@H](C)[C@@H](C6CCCCC6)O5)O4)OC(=O)[C@@H]4C=C(C)[C@@H](O)[C@H]5OC/C(=C\C=C\[C@@H]3C)[C@]54O)C[C@@H]2OC)O[C@@H](C)[C@@H]1O` ?
Result: 1

Q: Is IC50 strictly under 40 µM for the entry CCC(C)C1OC2(CCC1C)CC1CC(CC=C(C)C(OC3CC(OC)C(OC4CC(OC)C(O)C(C)O4)C(C)O3)C(C)C=CC=C3COC4C(O)C(C)=CC(C(=O)O1)C34O)O2 (stereo not shown) ?
Result: 1

Q: Is IC50 strictly under 40 µM for the entry `COC(=O)Nc1nc2ccc(Sc3ccccc3)cc2[nH]1` ?
Result: 1

Q: Is IC50 strictly under 40 µM for the entry `Cc1cc(-n2c(=O)[nH]c(=O)n(C)c2=O)ccc1Oc1ccc(SC(F)(F)F)cc1` ?
Result: 0

Further cases:
Q: Is IC50 strictly under 40 µM for the entry CC1(C)C(C=C(Cl)c2ccc(Cl)cc2)C1C(=O)OC(C#N)c1ccc(F)c(Oc2ccccc2)c1 (stereo not shown) ?
Result: 0

Q: Is IC50 strictly under 40 µM for the entry `CCCSc1ccc2nc(NC(=O)OC)[nH]c2c1` ?
Result: 1
